B1: GMCL1 (parent)
chain: RPDTGDDAAGHGFCYCAGSHKRKR

Variants of: B1
MEASUREMENT_PROTOCOL: protein stability index of a GFP-peptide fusion (GPS, HEK-293T) (PSI 1-6); higher = more stable;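 further: lentivirally expressed fusions sorted by FACS into six bins by GFP to DsRed ratio, PSI derived from sequencing read proportions per bin multiplied by bin number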
MEASUREMENT_PARAMETERS: c terminus: a fixed tail appended
ENDPOINT_NAME: protein stability index
Give a plain numeric answer without units written out.

Solved cases (8 shown):
G10D; 3.37
G10R; 2.81
C16W; 4.36
D7F; 2.83
A9K; 3.07
D3C; 2.97
G18I; 2.9
A8T; 2.73

What does the data say about its protein stability index? Entry: `P2N`
3.27
